The measured values listed here are drawn from the Immune Epitope Database (IEDB).

# target-of-assay: HLA-B*07:02
# procedure-details: IEDB peptide-MHC binding, purified MHC/direct/fluorescence; filed as Kd, often an IC50 or EC50 that approximates it; bounds were set here for any values at or beyond the usual limits of such assays
# assay-context: source organism: Vibrio vulnificus
quantity-kind: pKd
Notebook: values listed as pKd are -log10 of the concentration (mol/L).

Enquiry: Fill blank: measured pKd of the sequence KVMALPIPH is ____.
Return: 5.03

----------
# target-of-assay: HLA-B*15:42
# procedure-details: IEDB peptide-MHC binding, purified MHC/competitive/fluorescence; filed as Kd, often an IC50 or EC50 that approximates it; bounds were set here for any values at or beyond the usual limits of such assays
# assay-context: source organism: Homo sapiens
quantity-kind: Kd

Enquiry: Fill blank: measured Kd of the sequence MAMGILHTI is ____.
Return: ≥ 5 µM

----------
# target-of-assay: HLA-B*27:03
# procedure-details: IEDB peptide-MHC binding, purified MHC/competitive/fluorescence; filed as Kd, often an IC50 or EC50 that approximates it; bounds were set here for any values at or beyond the usual limits of such assays
# assay-context: source organism: Canarypox virus
quantity-kind: Kd

Enquiry: Fill blank: measured Kd of the sequence YMMDGNECP is ____.
Return: ≥ 20 µM

----------
# target-of-assay: HLA-B*40:01
# procedure-details: IEDB peptide-MHC binding, purified MHC/direct/fluorescence; filed as Kd, often an IC50 or EC50 that approximates it; bounds were set here for any values at or beyond the usual limits of such assays
# assay-context: source organism: Influenza A virus (A/swine/Korea/S190/2004(H9N2))
quantity-kind: Kd

Enquiry: Fill blank: measured Kd of the sequence ATTHSWIPK is ____.
Return: ≥ 20 µM

----------
# target-of-assay: HLA-B*27:03
# procedure-details: IEDB peptide-MHC binding, purified MHC/direct/fluorescence; filed as Kd, often an IC50 or EC50 that approximates it; bounds were set here for any values at or beyond the usual limits of such assays
# assay-context: source organism: Toxoplasma gondii
pKd: −log10 of the molar value.
quantity-kind: pKd

Enquiry: Form field - read-out: pKd; system: HLA-B*27:03; submitted item: LPPVVPPLI
Return: ≤ 4.70

----------
This section presents sequences with their documented Kd values.
# target-of-assay: HLA-B*51:01
# procedure-details: IEDB peptide-MHC binding, purified MHC/competitive/fluorescence; filed as Kd, often an IC50 or EC50 that approximates it; bounds were set here for any values at or beyond the usual limits of such assays
# assay-context: source organism: Giardia lamblia ATCC 50803

[
  {
    "sequence-record": "NAMGADYYA",
    "Kd": "≥ 20 µM"
  }
]

Enquiry: Fill blank: measured Kd of the sequence TEDDWITYI is ____.
Return: ≥ 20 µM

----------
# target-of-assay: HLA-A*68:02
# procedure-details: IEDB peptide-MHC binding, purified MHC/competitive/radioactivity; filed as Kd, often an IC50 or EC50 that approximates it; bounds were set here for any values at or beyond the usual limits of such assays
# assay-context: source organism: Trypanosoma cruzi
quantity-kind: pKd
Notebook: values listed as pKd are -log10 of the concentration (mol/L).

Enquiry: Fill blank: measured pKd of the sequence LLGLWGTAAL is ____.
Return: 5.09

----------
# target-of-assay: HLA-A*02:02
# procedure-details: IEDB peptide-MHC binding, purified MHC/competitive/radioactivity; filed as Kd, often an IC50 or EC50 that approximates it; bounds were set here for any values at or beyond the usual limits of such assays
# assay-context: source organism: Vaccinia virus WR
Could you mark each record Criterion met if its Kd falls strictly under 0.2 µM, and Criterion not met if it equals or exceeds it?

Use these answered entries as a reference point.
[
  {
    "sequence-record": "LVSKHWELT",
    "assigned-label": "Criterion not met"
  },
  {
    "sequence-record": "SQIFNIISYI",
    "assigned-label": "Criterion met"
  },
  {
    "sequence-record": "MTIREFPRK",
    "assigned-label": "Criterion not met"
  },
  {
    "sequence-record": "RVLYDEFVTI",
    "assigned-label": "Criterion met"
  }
]

Enquiry: Does the reported Kd of the following sequence sit strictly below 0.2 µM? NLEELTTVFI
Return: Criterion not met

Enquiry: Does the reported Kd of the following sequence sit strictly below 0.2 µM? TITTFIPISA
Return: Criterion not met

Enquiry: Does the reported Kd of the following sequence sit strictly below 0.2 µM? LVFNSISARA
Return: Criterion not met

Enquiry: Does the reported Kd of the following sequence sit strictly below 0.2 µM? WLKDSAIMV
Return: Criterion met

Enquiry: Does the reported Kd of the following sequence sit strictly below 0.2 µM? FTDCRTIDAI
Return: Criterion not met

Enquiry: Does the reported Kd of the following sequence sit strictly below 0.2 µM? IAIFNNRNLA
Return: Criterion not met

Enquiry: Does the reported Kd of the following sequence sit strictly below 0.2 µM? LLTDTIESA
Return: Criterion met

Enquiry: Does the reported Kd of the following sequence sit strictly below 0.2 µM? FTHTTAFFNT
Return: Criterion not met

Enquiry: Does the reported Kd of the following sequence sit strictly below 0.2 µM? DQTHIKTIAV
Return: Criterion not met

Enquiry: Does the reported Kd of the following sequence sit strictly below 0.2 µM? EAKTHFSTT
Return: Criterion not met

Enquiry: Does the reported Kd of the following sequence sit strictly below 0.2 µM? KLTKDRKML
Return: Criterion not met

Enquiry: Does the reported Kd of the following sequence sit strictly below 0.2 µM? SIFVSTMPV
Return: Criterion met

----------
# target-of-assay: HLA-A*02:01
# procedure-details: IEDB peptide-MHC binding, purified MHC/direct/fluorescence; filed as Kd, often an IC50 or EC50 that approximates it; bounds were set here for any values at or beyond the usual limits of such assays
# assay-context: source organism: Influenza A virus (A/chicken/Hubei/wm/1997(H5N1))
pKd: −log10 of the molar value.
quantity-kind: pKd

Enquiry: Fill blank: measured pKd of the sequence EKPKFLPDL is ____.
Return: ≤ 4.70

----------
# target-of-assay: HLA-A*02:19
# procedure-details: IEDB peptide-MHC binding, purified MHC/competitive/fluorescence; filed as Kd, often an IC50 or EC50 that approximates it; bounds were set here for any values at or beyond the usual limits of such assays
# assay-context: source organism: Vibrio parahaemolyticus K5030
pKd: −log10 of the molar value.
quantity-kind: pKd

Enquiry: Fill blank: measured pKd of the sequence AGGWVLWKV is ____.
Return: ≤ 4.70

----------
# target-of-assay: HLA-A*03:01
# procedure-details: IEDB peptide-MHC binding, purified MHC/competitive/fluorescence; filed as Kd, often an IC50 or EC50 that approximates it; bounds were set here for any values at or beyond the usual limits of such assays
# assay-context: source organism: Yersinia bercovieri ATCC 43970
quantity-kind: pKd
Notebook: values listed as pKd are -log10 of the concentration (mol/L).

Enquiry: Form field - read-out: pKd; system: HLA-A*03:01; submitted item: YIYDTAFKY
Return: 5.42

----------
# target-of-assay: HLA-A*69:01
# procedure-details: IEDB peptide-MHC binding, purified MHC/direct/fluorescence; filed as Kd, often an IC50 or EC50 that approximates it; bounds were set here for any values at or beyond the usual limits of such assays
# assay-context: source organism: West Nile virus
pKd: −log10 of the molar value.
quantity-kind: pKd

Enquiry: Fill blank: measured pKd of the sequence SLARGFPFV is ____.
Return: ≥ 9.00

----------
# target-of-assay: HLA-A*68:23
# procedure-details: IEDB peptide-MHC binding, purified MHC/competitive/fluorescence; filed as Kd, often an IC50 or EC50 that approximates it; bounds were set here for any values at or beyond the usual limits of such assays
# assay-context: source organism: Sudan ebolavirus
quantity-kind: Kd (nM)
Only the number, expressed in nM, is required.

Enquiry: Fill blank: measured Kd of the sequence CTSSIQYHR is ____.
Return: 3.8

----------
# target-of-assay: HLA-B*07:02
# procedure-details: IEDB peptide-MHC binding, purified MHC/direct/fluorescence; filed as Kd, often an IC50 or EC50 that approximates it; bounds were set here for any values at or beyond the usual limits of such assays
# assay-context: source organism: Escherichia coli O157:H7
quantity-kind: Kd

[
  {
    "sequence-record": "PILPKLFIL",
    "test-result": "≥ 20 µM"
  }
]

Enquiry: Fill blank: measured Kd of the sequence GEIFGLLGP is ____.
Return: ≥ 20 µM

----------
# target-of-assay: HLA-A*02:02
# procedure-details: IEDB peptide-MHC binding, purified MHC/competitive/radioactivity; filed as Kd, often an IC50 or EC50 that approximates it; bounds were set here for any values at or beyond the usual limits of such assays
# assay-context: source organism: Triticum aestivum
quantity-kind: pKd
Notebook: values listed as pKd are -log10 of the concentration (mol/L).

Enquiry: Form field - read-out: pKd; system: HLA-A*02:02; submitted item: LQQSTYQLV
Return: 6.36
